# EXPERIMENTAL TARGET: Nitric oxide synthase, inducible (Mus musculus, UniProt P29477)
# Sequence (P29477 whole entry): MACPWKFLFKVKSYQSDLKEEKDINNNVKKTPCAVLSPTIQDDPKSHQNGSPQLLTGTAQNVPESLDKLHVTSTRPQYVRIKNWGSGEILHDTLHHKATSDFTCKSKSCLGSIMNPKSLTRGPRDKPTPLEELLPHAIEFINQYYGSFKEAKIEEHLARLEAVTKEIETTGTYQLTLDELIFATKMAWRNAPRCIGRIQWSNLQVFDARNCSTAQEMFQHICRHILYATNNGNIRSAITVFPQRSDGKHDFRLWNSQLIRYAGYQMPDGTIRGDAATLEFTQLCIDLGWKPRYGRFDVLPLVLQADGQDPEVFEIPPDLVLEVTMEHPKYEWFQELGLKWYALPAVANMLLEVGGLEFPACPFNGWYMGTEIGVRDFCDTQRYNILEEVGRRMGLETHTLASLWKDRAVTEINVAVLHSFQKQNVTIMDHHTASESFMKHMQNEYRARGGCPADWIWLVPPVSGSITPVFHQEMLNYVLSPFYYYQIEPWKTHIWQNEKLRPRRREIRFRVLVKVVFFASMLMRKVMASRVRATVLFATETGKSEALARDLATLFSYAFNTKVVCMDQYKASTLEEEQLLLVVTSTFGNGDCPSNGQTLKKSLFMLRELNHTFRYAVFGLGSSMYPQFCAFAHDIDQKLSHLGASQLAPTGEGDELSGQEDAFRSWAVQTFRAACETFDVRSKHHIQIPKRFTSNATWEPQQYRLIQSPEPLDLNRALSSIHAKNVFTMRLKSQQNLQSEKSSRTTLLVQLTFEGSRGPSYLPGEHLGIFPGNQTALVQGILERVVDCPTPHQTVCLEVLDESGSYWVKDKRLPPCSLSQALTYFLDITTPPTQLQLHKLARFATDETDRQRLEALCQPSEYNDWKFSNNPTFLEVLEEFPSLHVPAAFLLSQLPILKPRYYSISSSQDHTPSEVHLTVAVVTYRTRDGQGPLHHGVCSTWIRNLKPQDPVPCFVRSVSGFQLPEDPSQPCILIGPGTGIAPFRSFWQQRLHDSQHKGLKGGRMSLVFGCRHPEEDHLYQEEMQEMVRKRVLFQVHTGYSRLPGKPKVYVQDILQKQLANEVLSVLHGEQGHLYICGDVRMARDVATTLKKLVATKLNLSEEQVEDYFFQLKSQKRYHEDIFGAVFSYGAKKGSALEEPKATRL
# EXPERIMENT DESCRIPTION: Inhibition of iNOS-mediated NO production in LPS-induced mouse BV2 cells
Field: pIC50. Provide a value for each of the compounds that follow.
In plain terms, pIC50 is the concentration in mol/L turned into minus its base-10 logarithm.

Enquiry: Give its pIC50 value. Item: CC1(C)CC[C@]2(C)CC=C3[C@]4(C)CC[C@H]5C(C)(C)[C@@H](O)CC[C@]5(C)[C@H]4CC[C@@]3(C)[C@@H]2C1
Return: 4.62

Enquiry: Cool, now CC1(C)CC[C@]2(C)CC=C3[C@]4(C)CC[C@H]5C(C)(C)C(=O)CC[C@]5(C)[C@H]4CC[C@@]3(C)[C@@H]2C1
Return: 4.33
